- System: SRPK1;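 also: KINOMEscan kinase panel screen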
- assaySetup: concentration: 1 μM, replicates: in singlicate; n = 1
readout: %Inh

>>> print(df.to_string())
                                   molecule  studysystem  readout  result
0  Cc1ccc(NC(=O)Nc2cc(C(C)(C)C)nn2-c2ccccc2)cc1        SRPK1     %Inh     21%
1  CC(=O)Nc1nc2cnc(Nc3cc(NC(=O)c4cccc(CCC#N)c4)ccc3C)nc2s1        SRPK1     %Inh     17%
2  CCCc1ccc(S(=O)(=O)NC2CCN(c3ccnc(Nc4ccc(F)cc4)n3)C2)cc1 (stereo not drawn)        SRPK1     %Inh      0%
3     Cc1cccc(-c2cc(Nc3ccncc3)c3ccccc3n2)n1        SRPK1     %Inh      5%
4  COc1cccc(-c2cc(-c3c[nH]nc3-c3ccccn3)ccn2)c1        SRPK1     %Inh   96.8%
5  COc1ccc2nc(-c3cccc(C)n3)nc(Nc3ccncc3)c2c1        SRPK1     %Inh     26%
6  CC1=C(C(=O)Nc2cc3cn[nH]c3cc2F)C(c2ccc(C(F)(F)F)cc2)CC(=O)N1 (stereo not drawn)        SRPK1     %Inh      0%
7  Cc1cc(NCC(c2ccccc2)c2ccccc2)nc(NCc2ccc(C(F)(F)F)cc2)n1        SRPK1     %Inh      0%
8   O=C1NC(=O)C(N2CCc3ccccc32)=C1c1ccccc1Cl        SRPK1     %Inh      0%
